# assay info: Plasma concentration on marmosets at 7 mg/kg, sc measured after 60 mins
# Assay type: ADME, organism-based
# Parameters: dose 7 mg/kg, route subcutaneous
# experimental setup: callitrichinae sp.
readout type: concentration at 1 h

Request: GET /values?readout=concentration at 1 h&item= O=C(O[C@@H]1CC[C@@H](c2cccc(F)c2F)Cc2cccnc21)N1CCC(n2c(=O)[nH]c3ncccc32)CC1
Result: > 1000 nM

====

# assay info: Half life in human liver microsomes at 0.5 uM
# Assay type: ADME, Microsome
readout type: half-life at 0.5 µM
Record the result as a number with its unit.

Request: GET /values?readout=half-life at 0.5 µM&item= O=C(O[C@@H]1CC[C@@H](c2cccc(F)c2F)Cc2cccnc21)N1CCC(n2c(=O)[nH]c3ncccc32)CC1
Result: 24 min

====

# study target: Calcitonin gene-related peptide type 1 receptor (Homo sapiens, UniProt O60894+Q16602)
# Sequence (Q16602 whole entry, one chain of several): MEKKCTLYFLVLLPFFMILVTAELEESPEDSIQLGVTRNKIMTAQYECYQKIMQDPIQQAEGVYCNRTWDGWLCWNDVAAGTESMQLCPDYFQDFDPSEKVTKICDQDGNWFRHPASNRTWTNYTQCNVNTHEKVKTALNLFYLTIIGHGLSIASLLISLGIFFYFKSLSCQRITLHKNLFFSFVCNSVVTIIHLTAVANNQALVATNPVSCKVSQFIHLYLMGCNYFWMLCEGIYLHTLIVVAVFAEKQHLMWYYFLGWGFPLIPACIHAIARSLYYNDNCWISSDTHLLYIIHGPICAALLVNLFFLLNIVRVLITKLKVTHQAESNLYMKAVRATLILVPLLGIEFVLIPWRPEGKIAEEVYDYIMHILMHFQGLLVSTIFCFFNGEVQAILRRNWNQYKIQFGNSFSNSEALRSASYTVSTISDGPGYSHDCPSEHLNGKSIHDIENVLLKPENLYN
# assay info: Antagonist activity at CGRP receptor in human SK-N-MC cells assessed as inhibition of CGRP-stimulated cAMP production
# Type: functional, cell-based
readout type: pIC50
Hey, just a heads up that pIC50 is the negative log base 10 of the concentration in molar.

Request: GET /values?readout=pIC50&item= O=C(O[C@@H]1CC[C@@H](c2cccc(F)c2F)Cc2cccnc21)N1CCC(n2c(=O)[nH]c3ncccc32)CC1
Result: 9.66

====

# assay info: Oral bioavailability in rat at 10 mg/kg
# Format: ADME, organism-based
# experimental setup: in vivo
readout type: bioavailability (%)
Respond numerically; units are % and should not be typed.

Request: GET /values?readout=bioavailability&item= O=C(O[C@@H]1CC[C@@H](c2cccc(F)c2F)Cc2cccnc21)N1CCC(n2c(=O)[nH]c3ncccc32)CC1
Result: 29

====

# assay info: Metabolic stability of the compound in human liver microsomes assessed as compound remaining at 0.5 uM after 10 mins
# Type: ADME, Microsome
# experimental setup: read-out: Stability
readout type: remaining at 10 min, 0.5 µM (%)
Respond numerically; units are % and should not be typed.

Request: GET /values?readout=remaining at 10 min, 0.5 µM&item= O=C(O[C@@H]1CC[C@@H](c2cccc(F)c2F)Cc2cccnc21)N1CCC(n2c(=O)[nH]c3ncccc32)CC1
Result: 74

====

# assay info: Permeability of the compound at pH 7.4 by PAMPA
# Format: ADME
# experimental setup: read-out: permeability
readout type: Papp
Record the result as a number with its unit.

Request: GET /values?readout=Papp&item= O=C(O[C@@H]1CC[C@@H](c2cccc(F)c2F)Cc2cccnc21)N1CCC(n2c(=O)[nH]c3ncccc32)CC1
Result: 88 ×10⁻⁶ cm/s

====

# assay info: Oral bioavailability in cynomolgus monkey at 10 mg/kg
# Type: ADME, organism-based, Macaca fascicularis
# experimental setup: in vivo
readout type: bioavailability (%)
Respond numerically; units are % and should not be typed.

Request: GET /values?readout=bioavailability&item= O=C(O[C@@H]1CC[C@@H](c2cccc(F)c2F)Cc2cccnc21)N1CCC(n2c(=O)[nH]c3ncccc32)CC1
Result: 38

====

# assay info: Permeability of the compound at pH 5.5 by PAMPA
# Assay type: ADME
# experimental setup: read-out: permeability
readout type: Papp
Record the result as a number with its unit.

Request: GET /values?readout=Papp&item= O=C(O[C@@H]1CC[C@@H](c2cccc(F)c2F)Cc2cccnc21)N1CCC(n2c(=O)[nH]c3ncccc32)CC1
Result: 150 ×10⁻⁶ cm/s

Data provenance: ChEMBL document CHEMBL2062501
